Assay: method code SF, from DOI: 10.1016/0223-5234(90)90118-m
reportedEndpoint: logP

These solved cases illustrate the format of a correct answer.
O=C(Nc1ccc2nn(C3CCCC3)nc2c1)C(Cl)(Cl)Cl :: 4.12
O=C(Nc1ccc2nn(C3CCCC3)nc2c1)c1ccc([N+](=O)[O-])cc1 :: 3.75
CC(=O)Nc1ccc2nn(C3CCCC3)nc2c1 :: 2.45

// query Suppose we examine the molecule `CC(C)COC(=O)Nc1ccc2nn(C3CCCC3)nc2c1` ; what logP value has been reported?
// result 4.28

// query Suppose we examine the molecule `O=C(Nc1ccc2nn(C3CCCC3)nc2c1)c1ccccc1` ; what logP value has been reported?
// result 3.85

// query Suppose we examine the molecule `COc1ccc(C(=O)Nc2ccc3nn(C4CCCC4)nc3c2)cc1` ; what logP value has been reported?
// result 4.03

// query Suppose we examine the molecule `CCOC(=O)Nc1ccc2nn(C3CCCC3)nc2c1` ; what logP value has been reported?
// result 3.43

// query Suppose we examine the molecule `O=C(Nc1ccc2nn(C3CCCC3)nc2c1)c1ccc(C(F)(F)F)cc1` ; what logP value has been reported?
// result 4.95

// query Suppose we examine the molecule `O=C(CCl)Nc1ccc2nn(C3CCCC3)nc2c1` ; what logP value has been reported?
// result 2.78

// query Suppose we examine the molecule `CS(=O)(=O)Nc1ccc2nn(C3CCCC3)nc2c1` ; what logP value has been reported?
// result 2.44
